Attribute: IC50
# assayedTarget: SOS1-KRAS (Homo sapiens, UniProt P01116, G12D)
# experiment: Inhibition of GST-tagged KRAS G12D mutant (2 to 169 residues) (unknown origin)/SOS1 catalytic domain (564 to 1069 residues) (unknown origin) protein-protein interaction preincubated with compound for 60 mins followed by SOS1 and GTP-DY-647P1 addition and measured after 30 mins by fluorescence based nucleotide exchange assay

Please review the entries below; each comes with its answer.
C=C1CN2CCCC2(COc2nc(N3CC4(CCc5sc(N)c(C#N)c54)C3)nc(N3CCC[C@@](C)(O)C3)n2)C1 (some centres not stated) = < 0.01 µM
N#Cc1c(N)sc2c1C1(CC2)CN(c2nc(OC[C@@]34CCCN3C[C@H](F)C4)nc(N3CCCC4(C3)NC(=O)NC4=O)n2)C1 (some centres not stated) = < 0.01 µM
N#Cc1c(N)sc2c1C1(CC2)CN(c2nc(OCC3(CN4CCOCC4)CC3)nc(N3C[C@H]4CC[C@@H](C3)N4)n2)C1 = < 0.01 µM
C[C@@]1(O)CCCN(c2nc(OC[C@@]34CCCN3C[C@H](F)C4)nc(N3CC4(C3)SCc3sc(N)c(C#N)c34)n2)C1 = < 0.01 µM
CC1(O)CCCCN(c2nc(OC[C@@]34CCCN3C[C@H](F)C4)nc(N3CC4(CCc5sc(N)c(C#N)c54)C3)n2)C1 (some centres not stated) = 0.01 µM

Turning to the following compound.
Lab note: CN(C)CC1(COc2nc(N3CC4(CCc5sc(N)c(C#N)c54)C3)nc(N3CCC[C@@](C)(O)C3)n2)CC1(F)F (some centres not stated) gave IC50 of < 0.01 µM

====

# assayedTarget: SOS1-KRAS (Homo sapiens, UniProt P01116, G12D)
# experiment: Inhibition of GST-tagged KRAS G12D mutant (2 to 169 residues) (unknown origin)/SOS1 catalytic domain (564 to 1069 residues) (unknown origin) protein-protein interaction preincubated with compound for 60 mins followed by SOS1 and GTP-DY-647P1 addition and measured after 30 mins by fluorescence based nucleotide exchange assay
Attribute: IC50

C[C@@]1(O)CCCN(c2nc(OC[C@@]34CCCN3C[C@H](F)C4)nc(N3CC4(CCc5sc(N)c(C#N)c54)C3)n2)C1 = < 10 nM
CC1(O)CCN(c2nc(OCC3(CN4CCOCC4)CC3)nc(N3CC4(CCc5sc(N)c(C#N)c54)C3)n2)CC1 = < 10 nM
C[C@@]1(O)C[C@@H](O)CN(c2nc(OC[C@@]34CCCN3C[C@H](F)C4)nc(N3CC4(CCc5sc(N)c(C#N)c54)C3)n2)C1 = < 10 nM

Lab note: N#Cc1c(N)sc2c1C1(CC2)CN(c2nc(OC[C@@]34CCCN3C[C@H](F)C4)nc(N3CCCCC(O)C3)n2)C1 (stereo partly specified) gave IC50 of 10 nM

Lab note: N#Cc1c(N)sc2c1C1(CC2)CN(c2nc(OC[C@@]34CCCN3C[C@H](F)C4)nc(N3CCCC(C#N)CC3)n2)C1 (stereo partly specified) gave IC50 of 10 nM

Lab note: N#Cc1c(N)sc2c1C1(CC2)CN(c2nc(OCC3(CN4CCOCC4)CC3)nc(N3CCCC4(C3)NC(=O)NC4=O)n2)C1 (stereo unspecified) gave IC50 of < 10 nM
